Molecular target: T1, EsCas13d, nuclease-dead (Eubacterium siraeum, UniProt B0MS50, R295A;H300A;R849A;H854A)
T1 sequence: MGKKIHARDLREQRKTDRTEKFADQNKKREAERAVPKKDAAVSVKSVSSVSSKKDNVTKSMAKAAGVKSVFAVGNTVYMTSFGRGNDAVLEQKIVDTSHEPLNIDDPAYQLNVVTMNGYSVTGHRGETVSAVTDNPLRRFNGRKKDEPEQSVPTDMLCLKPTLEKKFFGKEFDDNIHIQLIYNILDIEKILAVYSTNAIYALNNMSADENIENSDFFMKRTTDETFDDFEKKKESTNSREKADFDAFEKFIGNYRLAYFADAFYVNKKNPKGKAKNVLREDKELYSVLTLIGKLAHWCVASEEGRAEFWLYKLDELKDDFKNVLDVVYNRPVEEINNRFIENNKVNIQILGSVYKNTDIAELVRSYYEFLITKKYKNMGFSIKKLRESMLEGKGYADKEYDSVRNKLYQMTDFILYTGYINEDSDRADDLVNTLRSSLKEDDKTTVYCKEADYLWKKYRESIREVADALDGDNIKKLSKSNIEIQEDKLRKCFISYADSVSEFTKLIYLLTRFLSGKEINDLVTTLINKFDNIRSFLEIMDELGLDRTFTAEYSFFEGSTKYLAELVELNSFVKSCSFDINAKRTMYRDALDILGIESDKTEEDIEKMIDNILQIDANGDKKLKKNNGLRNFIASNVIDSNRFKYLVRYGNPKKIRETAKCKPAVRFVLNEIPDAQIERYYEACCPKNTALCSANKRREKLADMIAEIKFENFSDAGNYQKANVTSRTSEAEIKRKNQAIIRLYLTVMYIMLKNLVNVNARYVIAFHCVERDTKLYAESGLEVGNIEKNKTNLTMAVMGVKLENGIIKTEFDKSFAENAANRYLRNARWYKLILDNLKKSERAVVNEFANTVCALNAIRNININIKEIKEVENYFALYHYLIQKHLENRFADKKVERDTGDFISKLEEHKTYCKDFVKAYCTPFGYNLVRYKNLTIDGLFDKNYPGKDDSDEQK
Assay: crRNA (strand 1, pre-loaded); Mg2+; 40 mM Tris-HCl pH 7.5, 150 mM NaCl, 6 mM MgCl2, 1 mM DTT, 0.1% Tween-20, 0.2 mg/ml BSA; 25 C; 10 min per concentration, then washed
Conditions: tags: His6-TwinStrep-SUMO cleaved; N-terminal SNAP kept (SNAP-Surface 488); label: 3' end held by stalled T7 RNA polymerase
Kd by entry:
Form entry: value (nM) — number only.

input: Quick check: Kd of target 2 MT 5'PFS ACC 3'PFS AUC (mixed) RNA 1: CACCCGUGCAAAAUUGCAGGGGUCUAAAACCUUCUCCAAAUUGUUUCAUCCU RNA 2: GGGAAUGGAUCCACAUCUACGAAUUCACCAGGAUGAAACAAUUUGGAGAAGAUCAGAUCGGAAGAGCACACGU ?
output: 5.5

input: Given the entry target 2 MT 5'PFS GGC 3'PFS AGG (mixed) RNA 1: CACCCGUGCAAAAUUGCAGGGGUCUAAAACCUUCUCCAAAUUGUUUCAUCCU RNA 2: GGGAAUGGAUCCACAUCUACGAAUUCGGCAGGAUGAAACAAUUUGGAGAAGAGGAGAUCGGAAGAGCACACGU , report its measured Kd.
output: 14.9

input: # lookup: Kd of target 1 complement block 1-11 (mixed) RNA 1: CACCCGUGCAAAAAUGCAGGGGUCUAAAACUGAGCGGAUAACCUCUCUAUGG RNA 2: GGGAAUGGAUCCACAUCUACGAAUUCGUACCAUAGAGAGGAAUAGGCGAGUCCGAGAUCGGAAGAGCACACGU
output: 13.3

Continuing:
input: Kd lookup needed for target 1 MT 5'PFS GCU 3'PFS UUG (mixed) RNA 1: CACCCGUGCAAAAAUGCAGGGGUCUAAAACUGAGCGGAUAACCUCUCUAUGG RNA 2: GGGAAUGGAUCCACAUCUACGAAUUCGCUCCAUAGAGAGGUUAUCCGCUCAUUGAGAUCGGAAGAGCACACGU , thanks.
output: 61

input: Query: Kd; subject: target 1 insA 3' of 22,insU 3' of 5 (mixed) RNA 1: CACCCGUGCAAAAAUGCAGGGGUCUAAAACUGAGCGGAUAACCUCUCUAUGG RNA 2: GGGAAUGGAUCCACAUCUACGAAUUCGUACACAUAGAGAGGUUAUCCGUCUCACCGAGAUCGGAAGAGCACACGU
output: 28

input: Given the entry target 1 MT 5'PFS CUU 3'PFS UAA (mixed) RNA 1: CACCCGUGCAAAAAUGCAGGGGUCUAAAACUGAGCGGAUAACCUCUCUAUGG RNA 2: GGGAAUGGAUCCACAUCUACGAAUUCCUUCCAUAGAGAGGUUAUCCGCUCAUAAAGAUCGGAAGAGCACACGU , report its measured Kd.
output: 35

input: Tell me the measured Kd of target 2 MT 5'PFS CUC 3'PFS CCU (mixed) RNA 1: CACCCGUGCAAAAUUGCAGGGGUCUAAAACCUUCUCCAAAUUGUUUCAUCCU RNA 2: GGGAAUGGAUCCACAUCUACGAAUUCCUCAGGAUGAAACAAUUUGGAGAAGCCUAGAUCGGAAGAGCACACGU , please.
output: 23
